Could you please report measured EC50 for the items listed next?
- measurement-target: Luciferin 4-monooxygenase (Photinus pyralis)
- Sequence (P08659 whole entry): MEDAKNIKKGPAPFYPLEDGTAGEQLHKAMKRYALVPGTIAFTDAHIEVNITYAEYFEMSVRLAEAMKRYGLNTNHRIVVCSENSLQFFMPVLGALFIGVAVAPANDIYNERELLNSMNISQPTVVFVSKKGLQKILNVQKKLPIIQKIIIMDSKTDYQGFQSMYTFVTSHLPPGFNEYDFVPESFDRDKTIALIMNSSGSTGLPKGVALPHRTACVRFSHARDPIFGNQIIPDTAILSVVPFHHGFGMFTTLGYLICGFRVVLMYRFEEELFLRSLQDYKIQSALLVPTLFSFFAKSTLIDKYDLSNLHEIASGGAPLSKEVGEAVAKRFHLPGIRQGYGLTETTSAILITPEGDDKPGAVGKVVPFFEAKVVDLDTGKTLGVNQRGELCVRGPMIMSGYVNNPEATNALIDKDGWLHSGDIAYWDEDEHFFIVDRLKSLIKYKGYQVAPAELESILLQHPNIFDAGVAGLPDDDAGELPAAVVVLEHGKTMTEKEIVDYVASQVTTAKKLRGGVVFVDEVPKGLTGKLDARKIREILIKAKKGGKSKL
- assay-overview: firefly luciferase enzyme inhibitors, dose response, biochemical, luminescence (AID 1891)
The source made the active and inactive calls. No stated cut-off is given here; in the data, actives have a measured EC50 and inactives only a lower limit.

molecule	measurement-target	EC50
Cc1ccc(Oc2nc3ccccn3c(=O)c2/C=C(\C#N)C(=O)NC2CCS(=O)(=O)C2)c(C)c1 (stereo not given)	Luciferin 4-monooxygenase (Photinus pyralis)	> 112 µM (not active)
CCCCC(=O)N(c1ccc(C(=O)O)cc1)c1nc(-c2ccc(Cl)cc2)c(CC)s1	Luciferin 4-monooxygenase (Photinus pyralis)	> 112 µM (not active)
O=C1CC(Sc2nnnn2-c2ccccc2)C(=O)N1c1cccc(Cl)c1 (stereo not given)	Luciferin 4-monooxygenase (Photinus pyralis)	> 112 µM (not active)
CC12CCC(C(=O)NNc3ccccc3)(C(=O)C1=O)C2(C)C (stereo not given)	Luciferin 4-monooxygenase (Photinus pyralis)	> 112 µM (not active)

Request: I'm curious: which EC50 was measured for O=C(Nc1ccc([N+](=O)[O-])cc1)C(=O)Nc1cccc(C(=O)O)c1 tested on Luciferin 4-monooxygenase (Photinus pyralis)?
Response: 0.984 µM (active)
